# Target Of Assay: mammalian GUS purified from Bovine taurus liver (Bos taurus, UniProt A3KMY8)
# Sequence (A3KMY8 1-652): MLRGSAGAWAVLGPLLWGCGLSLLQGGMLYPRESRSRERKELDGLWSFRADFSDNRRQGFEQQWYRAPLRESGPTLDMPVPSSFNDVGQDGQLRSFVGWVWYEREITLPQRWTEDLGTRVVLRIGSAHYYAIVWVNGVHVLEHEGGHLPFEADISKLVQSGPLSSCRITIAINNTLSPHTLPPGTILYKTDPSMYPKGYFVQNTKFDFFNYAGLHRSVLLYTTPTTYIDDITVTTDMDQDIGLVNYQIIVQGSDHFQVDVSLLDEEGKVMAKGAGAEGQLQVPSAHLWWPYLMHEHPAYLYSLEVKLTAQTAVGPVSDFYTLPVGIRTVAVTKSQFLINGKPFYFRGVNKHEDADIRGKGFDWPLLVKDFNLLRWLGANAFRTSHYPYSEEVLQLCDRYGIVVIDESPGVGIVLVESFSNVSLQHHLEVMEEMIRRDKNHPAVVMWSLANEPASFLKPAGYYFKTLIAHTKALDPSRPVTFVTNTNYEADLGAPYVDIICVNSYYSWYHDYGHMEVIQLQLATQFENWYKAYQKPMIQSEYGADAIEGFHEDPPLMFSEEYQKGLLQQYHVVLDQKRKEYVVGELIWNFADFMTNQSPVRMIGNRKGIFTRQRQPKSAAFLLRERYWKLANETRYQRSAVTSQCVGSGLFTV
Outcome Measure: IC50

1. Cc1cc(C(=O)NNCc2ccccc2)no1 [Isocarboxazid, isocarboxazid] | > 100 µM
